Source listed as paper PMC7594083.

# procedureDetails: Biodistribution in mice bearing PC-3 xenografts
# Type: in vivo, mice (BALB/c nu/nu female)
# conditionDetails: mouse, in vivo, iv, 40 pmol, 40 pmol i.v., 1 h pi, 4 mice, SD; read-out: activity concentration in blood 1 h pi
recordedEndpoint: tissue uptake at 1 h
Form entry: enter the amount, then its unit.

Problem: Query (compound): CC(C)C[C@H](NC(=O)C[C@H](O)[C@H](CC(C)C)NC(=O)[C@H](Cc1c[nH]cn1)NC(=O)CNC(=O)[C@@H](NC(=O)[C@H](C)NC(=O)[C@H](Cc1c[nH]c2ccccc12)NC(=O)[C@H](CCC(N)=O)NC(=O)[C@@H](Cc1ccccc1)NC(=O)COCCOCCNC(=O)CN1CCN(CC(=O)O)CCN(CC(=O)O)CCN(CC(=O)O)CC1)C(C)C)C(N)=O [[^111In]In-DOTA-RM26, metal not drawn, reference compound] ; field requested: tissue uptake at 1 h
Solution: 0.27 %ID/g
